- protocol: antimalarial activity against Dd2 strain (AID 2302);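 further: 0% = DMSO untreated growth and 100% = chloroquine plus artemisinin killed control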
- condition-info: P. falciparum Dd2 in RBCs, LDH growth readout, 72 h; at 2 µM; active compounds read high
In this section we review reported growth inhibition values for a set of molecules.

# molecule, growth inhibition [%]
records = [
    ("CN(c1ccccc1)S(=O)(=O)c1cccc(NC(=O)c2ccc(-n3ccnc3)c([N+](=O)[O-])c2)c1", -8),
    ("CCOc1ccc(-c2nc(NC(=O)Cc3cccc(OC)c3)sc2C)cc1", 28),
    ("Cc1nnc(N2C(=N)SC(=Cc3ccc(-c4ccc(OC(F)(F)F)cc4)o3)C2=O)s1", 58),
    ("COc1cccc(C(=O)NCc2cccs2)c1Oc1ccccc1", 4),
    ("c1ccc(-c2cc(NCCCn3ccnc3)nc(-c3cccnc3)n2)cc1", 6),
    ("CN(C)CCN(C)Cc1ccc(-c2ccc3c(Nc4ccc(F)cc4Cl)ccnc3c2)o1", 100),
    ("Cc1nnsc1C(=O)Nc1cccc(-c2cccc(-c3nc4ccccc4[nH]3)c2)c1", 34),
    ("COc1ccc2nc3cc(Cl)ccc3c(NCCCN3CCNCC3)c2c1", 74),
    ("COc1ccc(CN2CCC(NCc3cccc(-n4ccnc4)c3)CC2)cc1", 93),
    ("CCn1ccc2c(N3CCCCS3(=O)=O)cc(C(=O)N[C@@H](Cc3ccccc3)[C@H](O)CNC3CCCCC3)cc21", 98),
    ("O=C(Nc1cccc(CN2CCCN(Cc3ccc4c(c3)OCO4)CC2)c1)c1cc2ccccc2s1", 11),
    ("Cc1cc2nc(NC3=NC4(c5ccccn5)N=C(Nc5nc6cc(C)c(C)cc6[nH]5)NC4(c4ccccn4)N3)[nH]c2cc1C (stereo not drawn)", 62),
    ("CCCCC(=O)Nc1nc2ccc([N+](=O)[O-])cc2s1", 69),
    ("CC(C)(NCc1ccc(OC(F)(F)F)cc1)c1nc(-c2ccc(Cl)c(O)c2)c(-c2ccncc2)[nH]1", 32),
    ("O=C1NC(=S)NC1=CC=Cc1ccc([N+](=O)[O-])o1", 30),
    ("CC(C)(C)c1ccc(N2C(N)=NC(N)=NC2(C)C)cc1Cl", 3),
    ("CCn1ncc2c(N3CCCC3=O)cc(C(=O)N[C@@H](Cc3ccccc3)[C@H](O)CNC(C)(C)c3cccc(OC)c3)cc21", 97),
    ("O=C(Cc1cn(-c2ccccc2)nc1-c1ccc(Cl)cc1)Nc1nccs1", 8),
    ("O=C(NCCN1CCCC1)c1cccc(-c2ccc(-c3nc4ccc(F)cc4[nH]3)s2)c1", 4),
    ("CC(C)N(CCOc1ccc2c(c1)N(C(=O)Nc1cc(Br)cc(C(F)(F)F)c1)CC2)C(C)C", 100),
    ("Cc1ccc(-n2ncc(C(=O)Nc3cc(Cl)cc(Cl)c3)c2C2CCNCC2)cc1C", 77),
    ("CCC(C)c1ccc(NC(=O)Nc2ccc(Cn3ncc(N4CCCNCC4)c(Cl)c3=O)cc2)cc1 (stereo not drawn)", 31),
    ("CCOC(=O)c1ccc(NC(=O)N(Cc2ccc(-c3cccc(CN4CCNCC4)c3)cc2)C2CCN(Cc3ccccc3)CC2)cc1", 55),
    ("CCCCCCOc1ccc(C(=O)NCCCC2CCN(CCCCCNC(=O)C=Cc3ccc(Cl)c(Cl)c3)CC2)cc1", 25),
    ("O=c1cc(NCCCNCc2cc(Br)cs2)[nH]c2ccccc12", 5),
    ("CCCCOc1ccc(-c2nc3ccccc3[nH]2)cc1", 82),
    ("O=C(/C=C/c1ccc(Cl)c(Cl)c1)NCCCCCN1CCCN(C(=O)Nc2ccc(Br)cc2)CC1", -4),
    ("CS(=O)(=O)CCNCc1ccc(-c2ccc3c(Nc4ccc(Cl)cc4F)ccnc3c2)o1", 98),
    ("CC(C)NCc1ccc(-c2ccc(NC(=O)c3cccc(Cl)c3)cc2)cc1", 14),
    ("CC(C)(C)c1nn(-c2ccccc2)c2[nH]c(=O)c(CNC3CCCCC3)cc12", 76),
    ("COc1cc(CNC[C@@H](O)[C@H](Cc2ccccc2)NC(=O)c2cc(C3CCCC3)cc(N3CCCS3(=O)=O)c2)cc(OC)c1", 94),
    ("CN(C)c1ccc(C=CC(=O)NC(=O)c2ccccc2O)cc1", 97),
    ("O=C(CCc1cnc[nH]1)Nc1ccc(-c2ccc(-c3nc4ccccc4[nH]3)cc2)cc1", 70),
]
